# Tested on: exatecan-resistant KB cells
# PROTOCOL SUMMARY: IC50 assay in exatecan-resistant KB cells
# Assay type: cell-based, human
# CONDITION PARAMETERS: Homo sapiens; KB cells pretreated 4× with exatecan; read-out: IC50
PROPERTY LABEL: IC50 (nM)
Quick reminder: number only, in nM, skip the unit.

stdin: What measured IC50 goes with `CC[C@@]1(O)C(=O)OCc2c1cc1n(c2=O)Cc2c-1nc1cc(F)c(C)c3c1c2[C@@H](N)CC3` ?
stdout: 4
